System: Vaccinia virus
Details: Orthopoxvirus vaccinia
Calls of active or inactive are those of the source. The rule behind the calls is not given here.

{"Compound": "O=c1[nH]c(=O)n(C2S[C@@H](CO)[C@H](O)[C@H]2O)cc1Br (stereo partly drawn)", "Subject of test": "Vaccinia virus", "Cytotoxicity": "inactive"}
{"Compound": "O=c1nc(-n2cncn2)ccn1C1S[C@@H](COCc2ccccc2)[C@H](OCc2ccccc2)[C@H]1OCc1ccccc1 (stereo partly drawn)", "Subject of test": "Vaccinia virus", "Cytotoxicity": "inactive"}
{"Compound": "Nc1ncnc2c1ncn2C1S[C@@H](COCc2ccccc2)[C@H](OCc2ccccc2)[C@H]1OCc1ccccc1 (stereo partly drawn)", "Subject of test": "Vaccinia virus", "Cytotoxicity": "inactive"}
{"Compound": "Nc1ccn(C2S[C@@H](COCc3ccccc3)[C@H](OCc3ccccc3)[C@H]2OCc2ccccc2)c(=O)n1 (stereo partly drawn)", "Subject of test": "Vaccinia virus", "Cytotoxicity": "inactive"}
{"Compound": "CC(=O)OC1S[C@@H](COCc2ccccc2)[C@H](OCc2ccccc2)[C@H]1OCc1ccccc1 (stereo partly drawn)", "Subject of test": "Vaccinia virus", "Cytotoxicity": "inactive"}
{"Compound": "O=c1[nH]c(=O)n(C2S[C@@H](CO)[C@H](O)[C@H]2O)cc1Cl (stereo partly drawn)", "Subject of test": "Vaccinia virus", "Cytotoxicity": "inactive"}
{"Compound": "O=c1[nH]c(=O)n(C2S[C@@H](CO)[C@H](O)[C@H]2O)cc1F (stereo partly drawn)", "Subject of test": "Vaccinia virus", "Cytotoxicity": "inactive"}
{"Compound": "C[C@@]1(n2ccc(N)nc2=O)CS[C@H](CO)O1", "Subject of test": "Vaccinia virus", "Cytotoxicity": "inactive"}
